- EXPERIMENTAL_SYSTEM: thrombin (UniProt P00734 328-622)
- TEST_PROTOCOL: pseudo-first-order inhibition kinetics, residual chromogenic activity
ASSAY_ENDPOINT: second-order rate constant of inhibition (M⁻¹ s⁻¹)
The reply should contain only the number, in M⁻¹ s⁻¹.

Known results for binders:
# BINDER, ASSAY_ENDPOINT, UNIT_TEXT, RECORDED_VALUE
records = [
    ("FL α1AT Pitts C232S P2TP1′N (other, E. coli, purified; also called 4.G9) SDPQGDAAQKTDTSHHDQDHPTFNKITPNLAEFAFSLYRQLAHQSNSTNIFFSPVSIATAFAMLSLGTKADTHDEILEGLNFNLTEIPEAQIHEGFQELLRTLNQPDSQLQLTTGNGLFLSEGLKLVDKFLEDVKKLYHSEAFTVNFGDTEEAKKQINDYVEKGTQGKIVDLVKELDRDTVFALVNYIFFKGKWERPFEVKDTEEEDFHVDQVTTVKVPMMKRLGMFNIQHSKKLSSWVLLMKYLGNATAIFFLPDEGKLQHLENELTHDIITKFLENEDRRSASLHLPKLSITGTYDLKSVLGQLGITKVFSNGADLSGVTEEAPLKLSKAVHKAVLTIDEKGTEAAGAMFLEAITRNIPPEVKFNKPFVFLMIEQNTKSPLFMGKVVNPTQK", "second-order rate constant of inhibition", "M⁻¹ s⁻¹", 270),
    ("FL α1AT Pitts C232S P2QP1′K (other, E. coli, purified; also called 4.G4) SDPQGDAAQKTDTSHHDQDHPTFNKITPNLAEFAFSLYRQLAHQSNSTNIFFSPVSIATAFAMLSLGTKADTHDEILEGLNFNLTEIPEAQIHEGFQELLRTLNQPDSQLQLTTGNGLFLSEGLKLVDKFLEDVKKLYHSEAFTVNFGDTEEAKKQINDYVEKGTQGKIVDLVKELDRDTVFALVNYIFFKGKWERPFEVKDTEEEDFHVDQVTTVKVPMMKRLGMFNIQHSKKLSSWVLLMKYLGNATAIFFLPDEGKLQHLENELTHDIITKFLENEDRRSASLHLPKLSITGTYDLKSVLGQLGITKVFSNGADLSGVTEEAPLKLSKAVHKAVLTIDEKGTEAAGAMFLEAIQRKIPPEVKFNKPFVFLMIEQNTKSPLFMGKVVNPTQK", "second-order rate constant of inhibition", "M⁻¹ s⁻¹", 3.8),
    ("FL α1AT Pitts C232S P2RP1′C (other, E. coli, purified; also called 1.B11) SDPQGDAAQKTDTSHHDQDHPTFNKITPNLAEFAFSLYRQLAHQSNSTNIFFSPVSIATAFAMLSLGTKADTHDEILEGLNFNLTEIPEAQIHEGFQELLRTLNQPDSQLQLTTGNGLFLSEGLKLVDKFLEDVKKLYHSEAFTVNFGDTEEAKKQINDYVEKGTQGKIVDLVKELDRDTVFALVNYIFFKGKWERPFEVKDTEEEDFHVDQVTTVKVPMMKRLGMFNIQHSKKLSSWVLLMKYLGNATAIFFLPDEGKLQHLENELTHDIITKFLENEDRRSASLHLPKLSITGTYDLKSVLGQLGITKVFSNGADLSGVTEEAPLKLSKAVHKAVLTIDEKGTEAAGAMFLEAIRRCIPPEVKFNKPFVFLMIEQNTKSPLFMGKVVNPTQK", "second-order rate constant of inhibition", "M⁻¹ s⁻¹", 34),
]

Query binder follows.
Given the entry FL α1AT Pitts C232S P2KP1′N (other, E. coli, purified; also called 3.B2; 2.H5) SDPQGDAAQKTDTSHHDQDHPTFNKITPNLAEFAFSLYRQLAHQSNSTNIFFSPVSIATAFAMLSLGTKADTHDEILEGLNFNLTEIPEAQIHEGFQELLRTLNQPDSQLQLTTGNGLFLSEGLKLVDKFLEDVKKLYHSEAFTVNFGDTEEAKKQINDYVEKGTQGKIVDLVKELDRDTVFALVNYIFFKGKWERPFEVKDTEEEDFHVDQVTTVKVPMMKRLGMFNIQHSKKLSSWVLLMKYLGNATAIFFLPDEGKLQHLENELTHDIITKFLENEDRRSASLHLPKLSITGTYDLKSVLGQLGITKVFSNGADLSGVTEEAPLKLSKAVHKAVLTIDEKGTEAAGAMFLEAIKRNIPPEVKFNKPFVFLMIEQNTKSPLFMGKVVNPTQK , report its measured second-order rate constant of inhibition.
15
